All figures here come from patent US20060247303A1.

TESTED SYSTEM: CETP activity in the serum (Homo sapiens, UniProt P11597)
Construct: from tissue; host or cells: serum of transgenic hCETP mice
Sequence (P11597 18-493): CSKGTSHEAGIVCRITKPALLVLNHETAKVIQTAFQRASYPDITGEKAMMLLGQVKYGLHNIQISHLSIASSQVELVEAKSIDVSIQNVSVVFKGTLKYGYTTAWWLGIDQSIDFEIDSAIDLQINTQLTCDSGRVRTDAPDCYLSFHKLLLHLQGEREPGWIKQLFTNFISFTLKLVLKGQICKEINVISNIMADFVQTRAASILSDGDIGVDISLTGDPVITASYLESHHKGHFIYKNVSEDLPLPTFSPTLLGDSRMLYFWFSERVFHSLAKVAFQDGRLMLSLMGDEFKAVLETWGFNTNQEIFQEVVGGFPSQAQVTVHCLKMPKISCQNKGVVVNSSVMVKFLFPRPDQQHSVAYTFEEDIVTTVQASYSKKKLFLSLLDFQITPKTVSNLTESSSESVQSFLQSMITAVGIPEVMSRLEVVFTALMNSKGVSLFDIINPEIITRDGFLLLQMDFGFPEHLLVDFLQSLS
EXPERIMENTAL PROTOCOL: Measurement of the ex vivo activities on transgenic hCETP mice
Assay type: in vivo
RUN PARAMETERS: mouse; 30 mg/kg oral, 1 h after administration, serum cholesteryl ester transport; read-out: % inhibition at 30 mg/kg 1 h
Entries annotated with measured inhibition at 30 mg/kg
Field format: number, assumed %, no unit text.

These solved cases illustrate the format of a correct answer.
>  <MOLECULE>
COc1c([C@@H](O)CC(C)C)ccc2c1C(=O)OCc1c(Cl)c(C)c(Cl)c(OC(=O)C3(C)CCCCC3)c1O2 [Example B-84]

>  <TESTED SYSTEM>
CETP activity in the serum (Homo sapiens, UniProt P11597)

>  <UNIT STRING>
%

>  <inhibition at 30 mg/kg>
28

$$$$
>  <MOLECULE>
CCc1c(C)c(Cl)c2c(c1OC(=O)C1(C)C3CCC1CC3)Oc1ccc([C@@H](O)CC(C)(C)C)c(OC)c1C(=O)OC2 (stereo partly shown) [Example C-73]

>  <TESTED SYSTEM>
CETP activity in the serum (Homo sapiens, UniProt P11597)

>  <UNIT STRING>
%

>  <inhibition at 30 mg/kg>
91

$$$$
>  <MOLECULE>
COc1c([C@@H](O)CC(C)C)ccc2c1C(=O)OCc1c(Cl)c(C)c(Br)c(OC(=O)C3(C)CC4CCC3C4)c1O2 (stereo partly shown) [Example B-45]

>  <TESTED SYSTEM>
CETP activity in the serum (Homo sapiens, UniProt P11597)

>  <UNIT STRING>
%

>  <inhibition at 30 mg/kg>
71

$$$$

Q: Item under review: COc1c([C@@H](O)CC(C)C)ccc2c1C(=O)OCc1c(Cl)c(C)c(Cl)c(OC(=O)C3(C)CC4CCC3C4)c1O2 (stereo partly shown) [Example B-81] . Reported inhibition at 30 mg/kg?
A: 59

Q: Item under review: COc1c([C@@H](O)CC(C)C)ccc2c1C(=O)OCc1c(Cl)c(C)c(C3CC3)c(OC(=O)C3(C)C4CCC3CC4)c1O2 (stereo partly shown) [Example C-56] . Reported inhibition at 30 mg/kg?
A: 66

Q: Item under review: CCc1c(C)c(Cl)c2c(c1OC(=O)C1(C)C3CCC1CC3)Oc1ccc([C@@H](O)CC(C)C)c(OC)c1C(=O)OC2 (stereo partly shown) [Example C-118] . Reported inhibition at 30 mg/kg?
A: 75

Q: Item under review: COc1c([C@@H](O)CC(C)(C)C)ccc2c1C(=O)OCc1c(Cl)c(C)c(Br)c(OC(=O)C3(C)C4CCC3CC4)c1O2 (stereo partly shown) [Example C-63] . Reported inhibition at 30 mg/kg?
A: 83
